Recorded IC50 by entry
- assay-procedure: Cytotoxicity against human HCT116/VM46 cells assessed as reduction in cell viability after 72 hrs by phosphatase assay
- Type: cell-based
- condition-summary: HCT-116/VM46, 72 h
Use µM as the unit, but write only the number.

>  <smiles-structure>
CC[C@]1(NS(=O)(=O)c2ccc(C)cc2)C[C@H]2CN(CCc3c([nH]c4ccccc34)[C@@](C(=O)OC)(c3cc4c(cc3OC)N(C)[C@H]3[C@@](O)(C(=O)OC)[C@H](OC(C)=O)[C@]5(CC)C=CCN6CC[C@]43[C@@H]65)C2)C1

>  <readout-unit>
µM

>  <IC50>
0.33

$$$$

Using the record for CC[C@]1(NC(=O)C2CC2)C[C@H]2CN(CCc3c([nH]c4ccccc34)[C@@](C(=O)OC)(c3cc4c(cc3OC)N(C)[C@H]3[C@@](O)(C(=O)OC)[C@H](OC(C)=O)[C@]5(CC)C=CCN6CC[C@]43[C@@H]65)C2)C1 , state its measured IC50.
0.095

Using the record for CC[C@]1(NC(=O)c2ccccc2C(F)(F)F)C[C@H]2CN(CCc3c([nH]c4ccccc34)[C@@](C(=O)OC)(c3cc4c(cc3OC)N(C)[C@H]3[C@@](O)(C(=O)OC)[C@H](OC(C)=O)[C@]5(CC)C=CCN6CC[C@]43[C@@H]65)C2)C1 , state its measured IC50.
0.54

Using the record for CC[C@]1(NC(=O)C2CCN(C)CC2)C[C@H]2CN(CCc3c([nH]c4ccccc34)[C@@](C(=O)OC)(c3cc4c(cc3OC)N(C)[C@H]3[C@@](O)(C(=O)OC)[C@H](OC(C)=O)[C@]5(CC)C=CCN6CC[C@]43[C@@H]65)C2)C1 , state its measured IC50.
6.6

====

- assay-procedure: Cytotoxicity against human HCT116/VM46 cells assessed as reduction in cell viability after 72 hrs by phosphatase assay
- Format: cell-based
- condition-summary: HCT-116/VM46, 72 h
measured-property: IC50

Please review the following examples before continuing.
>  <smiles-structure>
CC[C@]1(NC(=O)c2ccc(CN)cc2)C[C@H]2CN(CCc3c([nH]c4ccccc34)[C@@](C(=O)OC)(c3cc4c(cc3OC)N(C)[C@H]3[C@@](O)(C(=O)OC)[C@H](OC(C)=O)[C@]5(CC)C=CCN6CC[C@]43[C@@H]65)C2)C1

>  <IC50>
470 nM

$$$$
>  <smiles-structure>
CC[C@]1(NC(=O)c2ccc3ncoc3c2)C[C@H]2CN(CCc3c([nH]c4ccccc34)[C@@](C(=O)OC)(c3cc4c(cc3OC)N(C)[C@H]3[C@@](O)(C(=O)OC)[C@H](OC(C)=O)[C@]5(CC)C=CCN6CC[C@]43[C@@H]65)C2)C1

>  <IC50>
30 nM

$$$$
>  <smiles-structure>
CC[C@]1(NC(=O)c2ccc3ccsc3c2)C[C@H]2CN(CCc3c([nH]c4ccccc34)[C@@](C(=O)OC)(c3cc4c(cc3OC)N(C)[C@H]3[C@@](O)(C(=O)OC)[C@H](OC(C)=O)[C@]5(CC)C=CCN6CC[C@]43[C@@H]65)C2)C1

>  <IC50>
7.7 nM

$$$$
>  <smiles-structure>
CC[C@]1(NC(=O)c2ccc(NC)cc2)C[C@H]2CN(CCc3c([nH]c4ccccc34)[C@@](C(=O)OC)(c3cc4c(cc3OC)N(C)[C@H]3[C@@](O)(C(=O)OC)[C@H](OC(C)=O)[C@]5(CC)C=CCN6CC[C@]43[C@@H]65)C2)C1

>  <IC50>
6.2 nM

$$$$
>  <smiles-structure>
CC[C@]1(NC(=O)c2coc3ccccc23)C[C@H]2CN(CCc3c([nH]c4ccccc34)[C@@](C(=O)OC)(c3cc4c(cc3OC)N(C)[C@H]3[C@@](O)(C(=O)OC)[C@H](OC(C)=O)[C@]5(CC)C=CCN6CC[C@]43[C@@H]65)C2)C1

>  <IC50>
35 nM

$$$$

Using the record for CC[C@]1(NC(=O)c2ccccc2OC(F)(F)F)C[C@H]2CN(CCc3c([nH]c4ccccc34)[C@@](C(=O)OC)(c3cc4c(cc3OC)N(C)[C@H]3[C@@](O)(C(=O)OC)[C@H](OC(C)=O)[C@]5(CC)C=CCN6CC[C@]43[C@@H]65)C2)C1 , state its measured IC50.
620 nM

Using the record for CC[C@]1(NC(=O)c2cccc(Br)c2)C[C@H]2CN(CCc3c([nH]c4ccccc34)[C@@](C(=O)OC)(c3cc4c(cc3OC)N(C)[C@H]3[C@@](O)(C(=O)OC)[C@H](OC(C)=O)[C@]5(CC)C=CCN6CC[C@]43[C@@H]65)C2)C1 , state its measured IC50.
60 nM

====

- assay-procedure: Cytotoxicity against human HCT116/VM46 cells assessed as reduction in cell viability after 72 hrs by phosphatase assay
- Format: cell-based
- condition-summary: HCT-116/VM46, 72 h
measured-property: IC50 (µM)
Use µM as the unit, but write only the number.

Please review the following examples before continuing.
>  <smiles-structure>
CC[C@]1(NC(=O)c2ccc3ccccc3n2)C[C@H]2CN(CCc3c([nH]c4ccccc34)[C@@](C(=O)OC)(c3cc4c(cc3OC)N(C)[C@H]3[C@@](O)(C(=O)OC)[C@H](OC(C)=O)[C@]5(CC)C=CCN6CC[C@]43[C@@H]65)C2)C1

>  <IC50 [µM]>
0.27

$$$$
>  <smiles-structure>
CC[C@]1(NS(=O)(=O)c2ccc3ccccc3c2)C[C@H]2CN(CCc3c([nH]c4ccccc34)[C@@](C(=O)OC)(c3cc4c(cc3OC)N(C)[C@H]3[C@@](O)(C(=O)OC)[C@H](OC(C)=O)[C@]5(CC)C=CCN6CC[C@]43[C@@H]65)C2)C1

>  <IC50 [µM]>
0.44

$$$$
>  <smiles-structure>
CC[C@]1(NC(=O)c2ccc(Cl)cc2)C[C@H]2CN(CCc3c([nH]c4ccccc34)[C@@](C(=O)OC)(c3cc4c(cc3OC)N(C)[C@H]3[C@@](O)(C(=O)OC)[C@H](OC(C)=O)[C@]5(CC)C=CCN6CC[C@]43[C@@H]65)C2)C1

>  <IC50 [µM]>
0.05

$$$$

# context switch: different molecule, same IC50
Using the record for CC[C@]1(NC(=O)c2ccco2)C[C@H]2CN(CCc3c([nH]c4ccccc34)[C@@](C(=O)OC)(c3cc4c(cc3OC)N(C)[C@H]3[C@@](O)(C(=O)OC)[C@H](OC(C)=O)[C@]5(CC)C=CCN6CC[C@]43[C@@H]65)C2)C1 , state its measured IC50.
0.012

====

Recorded IC50 by entry
- assay-procedure: Cytotoxicity against human HCT116/VM46 cells assessed as reduction in cell viability after 72 hrs by phosphatase assay
- Type: cell-based
- condition-summary: HCT-116/VM46, 72 h
Use nM as the unit, but write only the number.

Please review the following examples before continuing.
>  <smiles-structure>
CC[C@]1(NC(=O)c2ccc(CC(C)C)cc2)C[C@H]2CN(CCc3c([nH]c4ccccc34)[C@@](C(=O)OC)(c3cc4c(cc3OC)N(C)[C@H]3[C@@](O)(C(=O)OC)[C@H](OC(C)=O)[C@]5(CC)C=CCN6CC[C@]43[C@@H]65)C2)C1

>  <measured-property>
IC50

>  <result>
65

$$$$
>  <smiles-structure>
CC[C@]1(NC(=O)c2cocn2)C[C@H]2CN(CCc3c([nH]c4ccccc34)[C@@](C(=O)OC)(c3cc4c(cc3OC)N(C)[C@H]3[C@@](O)(C(=O)OC)[C@H](OC(C)=O)[C@]5(CC)C=CCN6CC[C@]43[C@@H]65)C2)C1

>  <measured-property>
IC50

>  <result>
90

$$$$
>  <smiles-structure>
CC[C@]1(NC(=O)c2cc(Cl)c(OC)c(Cl)c2)C[C@H]2CN(CCc3c([nH]c4ccccc34)[C@@](C(=O)OC)(c3cc4c(cc3OC)N(C)[C@H]3[C@@](O)(C(=O)OC)[C@H](OC(C)=O)[C@]5(CC)C=CCN6CC[C@]43[C@@H]65)C2)C1

>  <measured-property>
IC50

>  <result>
25

$$$$

# context switch: different molecule, same IC50
Using the record for CCc1ccc(C(=O)N[C@@]2(CC)C[C@H]3CN(CCc4c([nH]c5ccccc45)[C@@](C(=O)OC)(c4cc5c(cc4OC)N(C)[C@H]4[C@@](O)(C(=O)OC)[C@H](OC(C)=O)[C@]6(CC)C=CCN7CC[C@]54[C@@H]76)C3)C2)cc1 , state its measured IC50.
3.4

====

- assay-procedure: Cytotoxicity against human HCT116/VM46 cells assessed as reduction in cell viability after 72 hrs by phosphatase assay
- Type: cell-based
- condition-summary: HCT-116/VM46, 72 h
Recorded IC50 by entry
Units required after the number.

Using the record for CC[C@]1(NC(=O)C2CCCC2)C[C@H]2CN(CCc3c([nH]c4ccccc34)[C@@](C(=O)OC)(c3cc4c(cc3OC)N(C)[C@H]3[C@@](O)(C(=O)OC)[C@H](OC(C)=O)[C@]5(CC)C=CCN6CC[C@]43[C@@H]65)C2)C1 , state its measured IC50.
380 nM

Using the record for CC[C@]1(NC(=O)c2ccc(C#N)c(C)c2)C[C@H]2CN(CCc3c([nH]c4ccccc34)[C@@](C(=O)OC)(c3cc4c(cc3OC)N(C)[C@H]3[C@@](O)(C(=O)OC)[C@H](OC(C)=O)[C@]5(CC)C=CCN6CC[C@]43[C@@H]65)C2)C1 , state its measured IC50.
65 nM

Using the record for CC[C@]1(NC(=O)c2cc(C)cc(C)c2)C[C@H]2CN(CCc3c([nH]c4ccccc34)[C@@](C(=O)OC)(c3cc4c(cc3OC)N(C)[C@H]3[C@@](O)(C(=O)OC)[C@H](OC(C)=O)[C@]5(CC)C=CCN6CC[C@]43[C@@H]65)C2)C1 , state its measured IC50.
9.2 nM

Using the record for CC[C@]1(NC(=O)c2ccc(OC(F)(F)F)cc2)C[C@H]2CN(CCc3c([nH]c4ccc(F)cc34)[C@@](C(=O)OC)(c3cc4c(cc3OC)N(C)[C@H]3[C@@](O)(C(=O)OC)[C@H](OC(C)=O)[C@]5(CC)C=CCN6CC[C@]43[C@@H]65)C2)C1 , state its measured IC50.
1 nM
